Test system: human Factor 7 mRNA
Assay: Antisense inhibition of human Factor 7 mRNA in HepB3 cells, lipofectin, 50 nM, real-time RT-PCR
Assay type: cell-based
Conditions: Example 1; HepB3 cells, lipofectin, 50 nM, ~24 h, relative to untreated control cells
In the oligonucleotide strings, read from the 5' end, every base follows the letter of its sugar. An asterisk marks phosphorothioate; unmarked linkages are phosphodiester. Other units and linkages are bracketed, terminal groups are in braces. A string of capitals states the bases alone. e = 2'-O-(2-methoxyethyl) (MOE); [5mC] = 5-methylcytosine; d = 2'-deoxy (DNA)
Outcome measure: % Inhibition (human Factor 7 mRNA) (%)

• 407608 (antisense eT*eA*eT*eA*eG*dG*dA*d[5mC]*dT*dG*dG*dA*dG*d[5mC]*dT*eG*eG*eT*e[5mC]*e[5mC]) [compound 407608] = 13
• 407636 (antisense eG*e[5mC]*eA*eG*e[5mC]*d[5mC]*d[5mC]*dT*dG*dG*d[5mC]*d[5mC]*d[5mC]*d[5mC]*dA*eG*e[5mC]*eT*eG*eA) [compound 407636] = 75
• 407916 (antisense eG*eT*eG*eG*e[5mC]*d[5mC]*d[5mC]*dA*d[5mC]*dG*dG*dT*dT*dG*d[5mC]*eG*e[5mC]*eA*eG*e[5mC]) [compound 407916] = 53
• 407912 (antisense e[5mC]*e[5mC]*e[5mC]*eG*eG*dT*dA*dG*dT*dG*dG*dG*dT*dG*dG*e[5mC]*eA*eT*eG*eT) [compound 407912] = 46
• 407660 (antisense eG*e[5mC]*eT*e[5mC]*eT*dG*dA*dA*dG*dT*dA*dG*dA*dT*dG*eA*eT*eG*e[5mC]*e[5mC]) [compound 407660] = 16
• 407907 (antisense eA*eA*eT*eG*eA*dG*dA*dA*dG*d[5mC]*dG*d[5mC]*dA*d[5mC]*dG*eA*eA*eG*eG*e[5mC]) [compound 407907] = 35
